Entries and their folding stability dG values follow.
B1: EHEE_rd3_0053 (parent)
chain: TYTFKVDNKDQAKKAAKWAKKLGLSFQIEKHGDTFKITVQ

Variants of: B1
Test: folding stability dG (cDNA display proteolysis); higher = more stable
Conditions: PBS, room temperature
Expressed in kcal/mol, but write only the number.

variant_descriptor=K14N readout_kind="folding stability dG" readout_unit=kcal/mol measured_result=2
variant_descriptor=G23C readout_kind="folding stability dG" readout_unit=kcal/mol measured_result=1.62
variant_descriptor=Y2W readout_kind="folding stability dG" readout_unit=kcal/mol measured_result=2.7
variant_descriptor=N8M readout_kind="folding stability dG" readout_unit=kcal/mol measured_result=1.15
variant_descriptor=F4D readout_kind="folding stability dG" readout_unit=kcal/mol measured_result=-0.075

Quick one: folding stability dG of `K36E` ?
2.45

Quick one: folding stability dG of `L24Q` ?
0.563

Quick one: folding stability dG of `L24V` ?
1.4
